- Assay target: T1, human galanin (mature, processed form) (human, UniProt P22466 33-62, 125I-labelled in the filtration and immunoprecipitation assays; biotinylated in the IGEN assay and in the BIAcore assay of Table 4)
- T1 construct: mature; the assays used the mature peptide; also called biotinylated galanin
- T1 peptide (looked up): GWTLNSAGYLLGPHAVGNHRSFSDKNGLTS
- Assay overview: BIAcore SPR; biotinylated galanin on a streptavidin chip, MAb flowed
Measure: Kd (nM)
Give your result in nM as a bare value.

Enquiry: Name the reported Kd value associated with the binder murine monoclonal antibody 2F8 (antibody, mouse IgG1, V domains shown) VH: EVQLQQSGAELVRPGALVKLSCKASGFNIEDYYIHWVRQRPEEGLEWIGRIDPENGNTIYDPKFQGKASLTADTSSNTAYLQLSSLTSEDTAVYFCARGYVDWGQGTLVTVSA VL: DVLMTQTPLSLPVSLGDQASISCRSSQSIVHSDGDTYLEWYLQKPGQSPKLLIYKVSNRFSGVPDRFSGSGSGTDFTLKIIRVEAEDLGLYFCFQGSHVPYTFGGGTKLEIKR
Return: 0.15
